subject of test: UniProt P33981
Sequence (P33981 whole entry, the tested form may be a part): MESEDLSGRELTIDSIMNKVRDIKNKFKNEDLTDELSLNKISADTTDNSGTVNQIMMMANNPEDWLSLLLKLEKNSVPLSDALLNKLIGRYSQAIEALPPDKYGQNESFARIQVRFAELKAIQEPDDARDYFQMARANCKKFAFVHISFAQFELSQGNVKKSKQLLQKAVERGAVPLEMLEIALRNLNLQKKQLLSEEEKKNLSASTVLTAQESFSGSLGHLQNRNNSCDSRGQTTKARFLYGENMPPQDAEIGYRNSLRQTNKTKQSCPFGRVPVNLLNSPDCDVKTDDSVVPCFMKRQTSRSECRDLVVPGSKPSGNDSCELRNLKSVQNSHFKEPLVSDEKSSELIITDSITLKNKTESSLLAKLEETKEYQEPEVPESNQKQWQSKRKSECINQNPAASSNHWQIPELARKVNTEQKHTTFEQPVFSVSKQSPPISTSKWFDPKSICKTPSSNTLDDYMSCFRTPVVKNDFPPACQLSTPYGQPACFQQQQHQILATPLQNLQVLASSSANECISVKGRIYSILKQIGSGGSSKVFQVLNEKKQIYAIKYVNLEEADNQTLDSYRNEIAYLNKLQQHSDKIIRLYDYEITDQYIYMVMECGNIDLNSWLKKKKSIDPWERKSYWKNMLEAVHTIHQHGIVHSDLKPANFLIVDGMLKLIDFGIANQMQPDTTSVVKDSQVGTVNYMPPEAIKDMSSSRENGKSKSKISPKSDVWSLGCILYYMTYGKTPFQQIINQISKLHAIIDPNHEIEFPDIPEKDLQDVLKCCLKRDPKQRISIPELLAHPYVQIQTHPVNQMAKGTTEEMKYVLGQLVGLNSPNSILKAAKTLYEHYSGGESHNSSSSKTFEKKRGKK
run description: Binding affinity to wild-type human partial length TTK (N505 to V798 residues) expressed in bacterial expression system by active site-directed competition binding based Kinomescan method
pKd: −log10 of the molar value.
Classification field: enter 1.0 for pKd values not below 8, 0.0 for values below it.

Examples from the recorded data:
>>> group("C=CC(=O)N1CC[C@H](n2c(=O)cc(C)c3cnc(Nc4ccc(N5CCN(C)CC5)cc4OC)nc32)C1")
0.0
>>> group("COc1cc(N2CCN(C)CC2)ccc1Nc1ncc2cc(C)c(=O)n([C@H]3CC[C@@H](NC(=O)C4CCCCC4)CC3)c2n1")
1.0
>>> group("CCC(=O)N[C@H]1CC[C@H](n2c(=O)cc(C)c3cnc(Nc4ccc(N5CCN(C)CC5)cc4OC)nc32)CC1")
1.0

[in] Does the reported pKd for "CCC(=O)N[C@H]1CC[C@@H](n2c(=O)cc(C)c3cnc(Nc4ccc(N5CCN(C)CC5)c(C)c4)nc32)CC1" fall at or above the 8 mark?
[out] 1.0

[in] Does the reported pKd for "COc1cc(N2CCN(C)CC2)ccc1Nc1ncc2c(C)cc(=O)n([C@H]3CC[C@@H](NC(=O)c4cccc5ccccc45)CC3)c2n1" fall at or above the 8 mark?
[out] 1.0

[in] Does the reported pKd for "COc1cc(N2CCN(C)CC2)ccc1Nc1ncc2c(C)cc(=O)n([C@H]3CC[C@@H](NC(=O)C45CC6CC(CC(C6)C4)C5)CC3)c2n1" fall at or above the 8 mark?
[out] 1.0
